tested on: pERK in HCT116 cells; test: Inhibition of KRas phosphorylation of ERK (Cisbio HTRF pERK assay); details: Homo sapiens, HCT-116, read-out: Inhibition (HTRF IC50) of KRas-mediated Phosphorylation of ERK, HCT116
pIC50: −log10 of the molar value.
value_kind: pIC50

molecule	assay_target	value_kind	experimental_result
CCc1c(F)ccc2cc(O)cc(-c3ncc4c(N5CCCn6nc(C(=O)N7CCN(C)CC7)cc6C5)nc(OC[C@@]56CCCN5C[C@H](F)C6)nc4c3F)c12	pERK in HCT116 cells	pIC50	5.55
OCC1COCCN(c2nc(OC[C@@]34CCCN3C[C@H](F)C4)nc3c(F)c(-c4cc(O)cc5ccc(F)c(Cl)c45)ncc23)C1 (some centres unmarked)	pERK in HCT116 cells	pIC50	5.88
C#Cc1c(F)ccc2cc(O)cc(-c3ncc4c(N5CCCC6(C5)NC(=O)NC6=O)nc(OC[C@@]56CCCN5C[C@H](F)C6)nc4c3F)c12 (some centres unmarked)	pERK in HCT116 cells	pIC50	5.84
CCc1c(F)ccc2cc(O)cc(-c3ncc4c(N5C[C@@H](CO)C[C@](C)(O)C5)nc(OC[C@@]56CCCN5C[C@H](F)C6)nc4c3F)c12 (mixture of isomers)	pERK in HCT116 cells	pIC50	6.42

1. C#Cc1c(F)ccc2cc(O)cc(-c3ncc4c(N5CCOCC(C)(O)C5)nc(OC[C@@]56CCCN5C[C@H](F)C6)nc4c3F)c12 (some centres unmarked)
2. CCc1c(F)ccc2cc(O)cc(-c3ncc4c(N5CCCC6(CC(=O)N6)C5)nc(OC[C@@]56CCCN5C[C@H](F)C6)nc4c3F)c12 (some centres unmarked)
3. Oc1cc(-c2ncc3c(N4CC5CC(O)C(C5)C4)nc(OC[C@@]45CCCN4C[C@H](F)C5)nc3c2F)c2c(Br)c(F)ccc2c1 (some centres unmarked)
4. O=C1NC(=O)C2(CCCN(c3nc(OC[C@@]45CCCN4C[C@H](F)C5)nc4c(F)c(-c5cc(O)cc6ccc(F)c(Br)c56)ncc34)C2)N1 (some centres unmarked)
# sort list by recorded pIC50, greatest to least Please list the labels according to the requested order.
3, 1, 4, 2
(3: 7.34, 1: 6.56, 4: 6.22, 2: 5.70)

----------
target: KRas G12S (Homo sapiens, UniProt P01116, G12S); assay: biochemical;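 note: TR-FRET displacement binding to KRas, read after one hour incubation at room temperature, IC50 from four-parameter fit of percent of control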
Sequence (P01116 1-169 isoform P01116-2 G12S): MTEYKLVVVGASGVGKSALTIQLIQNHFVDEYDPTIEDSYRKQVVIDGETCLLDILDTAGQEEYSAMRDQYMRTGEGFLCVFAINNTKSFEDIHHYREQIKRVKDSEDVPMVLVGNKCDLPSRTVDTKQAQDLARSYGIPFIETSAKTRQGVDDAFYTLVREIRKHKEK
value_kind: IC50

molecule	experimental_result
CCc1c(F)ccc2cc(O)cc(-c3ncc4c(N5CCC[C@@](C)(O)C5)nc(OC[C@@H]5CCCN5C)nc4c3F)c12 [Example 28]	≤ 2 nM
CCc1c(F)ccc2cc(O)cc(-c3ncc4c(N5CCC[C@@](C)(O)C5)nc(OC[C@@]56CCCN5[C@H](COC(=O)N(C)C)CC6)nc4c3F)c12 [Example 314]	≤ 2 nM

Turning to the following molecule.
In one line, give reported IC50 of the entry C#Cc1c(F)ccc2cc(O)cc(-c3ncc4c(N5CCC[C@@](C)(O)C5)nc(OC[C@@]56CCCN5C[C@H](F)C6)nc4c3F)c12 [Example 13] .
≤ 2 nM

----------
target: KRas G12D (Homo sapiens, UniProt P01116, G12D); test: biochemical;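 note: TR-FRET displacement binding assay on KRas, read after a one-hour incubation at room temperature, IC50 fitted from percent-of-control values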
Sequence (P01116 1-169 isoform P01116-2 G12D): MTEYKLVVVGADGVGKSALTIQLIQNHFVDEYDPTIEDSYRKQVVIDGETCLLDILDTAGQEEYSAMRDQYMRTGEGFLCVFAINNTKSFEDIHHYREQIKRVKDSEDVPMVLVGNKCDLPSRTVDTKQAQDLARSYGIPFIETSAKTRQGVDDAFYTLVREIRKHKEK
value_kind: IC50 (µM)

molecule	assay_target	IC50, µM
O=C1CCC2(CCCN(c3nc(OCC45CCCN4CCC5)nc4c(F)c(-c5cccc6cccc(F)c56)ncc34)C2)C1 (centres unmarked)	KRas G12D (Homo sapiens, UniProt P01116, G12D)	14.1

1. CCc1c(F)ccc2cc(O)cc(-c3ncc4c(N5CCCC6(CCS(=N)(=O)C6)C5)nc(OC[C@@]56CCCN5C[C@H](F)C6)nc4c3F)c12 (some centres unmarked)
2. Oc1nc(CCCNc2nc(OCC34CCCN3CCC4)nc3c(F)c(-c4cccc5cccc(Cl)c45)ncc23)n[nH]1
3. O=c1ccc(CNc2nc(OCC34CCCN3CCC4)nc3c(F)c(-c4cccc5cccc(F)c45)ncc23)c[nH]1
// sort entries: IC50, high to low # the answer lists labels in the order requested
3, 2, 1
(3: 62.9 µM, 2: 15.5 µM, 1: 0.005 µM)

----------
test system: pERK in A549 cells; experiment: Inhibition of KRas phosphorylation of ERK (Cisbio HTRF pERK assay); conditions: Homo sapiens, A549, read-out: Inhibition (HTRF IC50) of KRas-mediated Phosphorylation of ERK, A549
value_kind: IC50 (nM)

Field: example entries. Status: answers known.
compound	experimental_result
CCc1c(F)ccc2cc(O)cc(-c3ncc4c(N5CCCn6nc(C(=O)N7CCOCC7)cc6C5)nc(OC[C@@]56CCCN5C[C@H](F)C6)nc4c3F)c12	65
O=C1CC2(CCCN(c3nc(OC[C@@]45CCCN4C[C@H](F)C5)nc4c(F)c(-c5cc(O)cc6ccc(F)c(Br)c56)ncc34)C2)N1 (stereo partly shown)	247
CCc1c(F)ccc2cc(O)cc(-c3ncc4c(N5CCCn6nc(NC)cc6C5)nc(OC[C@@]56CCCN5C[C@H](F)C6)nc4c3F)c12	353
CCc1c(F)ccc2cc(O)cc(-c3ncc4c(N5CCC[C@@](C)(O)C5)nc(OCC5(CN(C)C)CC5)nc4c3F)c12	51
Oc1cc(-c2ncc3c(N4CCCC5(CC(O)C5)C4)nc(OC[C@@]45CCCN4C[C@H](F)C5)nc3c2F)c2c(Cl)c(F)ccc2c1 (stereo partly shown)	54

I. C#Cc1c(F)ccc2cc(O)cc(-c3ncc4c(N5CCOC[C@@](C)(O)C5)nc(OC[C@@]56CCCN5C[C@H](F)C6)nc4c3F)c12
II. CCc1c(F)ccc2cc(O)cc(-c3ncc4c(N5CC6C(=O)NC(=O)C6(C)C5)nc(OC[C@@]56CCCN5C[C@H](F)C6)nc4c3F)c12 (stereo partly shown)
In terms of reported IC50, does I or II have the smaller number? Reply with the label of the item you choose.
I

----------
target: KRas G12R (Homo sapiens, UniProt P01116, G12R); test: biochemical;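 note: TR-FRET displacement assay of compound binding to KRas, read after one hour at room temperature, potency from a four-parameter fit of percent-of-control values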
Sequence (P01116 1-169 isoform P01116-2 G12R): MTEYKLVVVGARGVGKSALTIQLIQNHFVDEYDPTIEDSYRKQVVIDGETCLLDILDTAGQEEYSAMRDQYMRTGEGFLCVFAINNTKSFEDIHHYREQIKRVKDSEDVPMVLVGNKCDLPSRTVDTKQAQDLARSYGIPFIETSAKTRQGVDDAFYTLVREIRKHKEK
pIC50: −log10 of the molar value.
value_kind: pIC50

Solved cases (2 shown):
molecule	pIC50
O=C1CC2(CCN(c3nc(OCC45CCCN4CCC5)nc4c(F)c(-c5cccc6cccc(F)c56)ncc34)CC2)N1 [Example 77]	5.66
CC1(O)CCCN(c2nc(OCC34CCCN3CCC4)nc3c(F)c(-c4cccc5cccnc45)ncc23)C1 (stereo not shown) [Example 66]	4.17

A. CC1(O)CCCN(c2nc(OCC34CCCN3CCC4)nc3c(F)c(-c4cc(O)cc5ccccc45)ncc23)C1 (stereo not shown) [Example 151]
B. CCc1c(F)ccc2cc(O)cc(-c3ncc4c(NCCC5CNC(=O)C5)nc(OC[C@@]56CCCN5C[C@H](F)C6)nc4c3F)c12 (stereo partly shown) [Example 376]
From the items above, decide which of A and B has the lower pIC50 reading. Which one? Tell me its label.
A

----------
test system: pERK in MKN1 cells; assay: Inhibition of KRas phosphorylation of ERK (Cisbio HTRF pERK assay); conditions: Homo sapiens, MKN-1, 3 h, read-out: Inhibition (HTRF IC50) of KRas-mediated Phosphorylation of ERK, MKN1
value_kind: IC50 (nM)

A. CCc1c(F)ccc2cc(O)cc(-c3ncc4c(N5CCCCC6(C5)NC(=O)NC6=O)nc(OC[C@@]56CCCN5C[C@H](F)C6)nc4c3F)c12 (stereo partly drawn)
B. CCc1c(F)ccc2cc(O)cc(-c3ncc4c(N5CCOCC(O)C5)nc(OC[C@@]56CCCN5C[C@H](F)C6)nc4c3F)c12 (stereo partly drawn)
Between A and B , which one has the lower reported IC50 value? State the label of the item chosen.
B
(B: 13 nM, A: 24 nM)

----------
system: pERK in ASPC1 cells; assay: Inhibition of KRas phosphorylation of ERK (Cisbio HTRF pERK assay); conditions: Homo sapiens, ASPC1, read-out: Inhibition (HTRF IC50) of KRas-mediated Phosphorylation of ERK, AsPC-1
pIC50: −log10 of the molar value.
Measured pIC50 values are reported for all entries that follow.

# annotated cases, reported pIC50 shown
molecule	pIC50
CCc1c(F)ccc2cc(O)cc(-c3ncc4c(N5C[C@H]6C[C@@H](C5)[C@H](CO)[C@H]6O)nc(OC[C@@]56CCCN5C[C@H](F)C6)nc4c3F)c12 [Example 486]	≤ 5.00
CCc1c(F)ccc2cc(O)cc(-c3ncc4c(N5CCN6C(=O)NC(=O)C6C5)nc(OC[C@@]56CCCN5C[C@H](F)C6)nc4c3F)c12 (stereo partly drawn) [Example 381]	≤ 4.70

Lab note: next molecule to report on.
Kindly indicate its recorded pIC50. Item: Cc1cc2[nH]ncc2c(-c2ncc3c(N4CCCC(C)(O)C4)nc(OCC45CCCN4CCC5)nc3c2F)c1C (stereo not drawn) [Example 25]
≤ 5.00
